# Tested on: Staphylococcus aureus
# method: Antibacterial activity against methicillin-resistant Staphylococcus aureus 2658 RCMB up to 20 hrs by broth microdilution assay
# Assay type: functional
Here, each record is paired with measured MIC data.
measured_quantity: MIC (µg/mL)

mol_smiles: Cc1nc(-c2ccc(-c3ccccc3)cc2)sc1-c1ccnc(N(C)C)n1
result_operator: >
observed_measurement: 25
--
mol_smiles: Cc1nc(-c2ccc(-c3ccccc3)cc2)sc1-c1ccnc(N2CCCCC2)n1
result_operator: >
observed_measurement: 25
--
mol_smiles: CCN(CC)c1nccc(-c2sc(-c3ccc(-c4ccccc4)cc3)nc2C)n1
result_operator: >
observed_measurement: 25
--
mol_smiles: Cc1nc(-c2ccc(-c3ccccc3)cc2)sc1-c1ccnc(NC(C)C)n1
result_operator: >
observed_measurement: 25
--
mol_smiles: Cc1nc(-c2ccc(-c3ccccc3)cc2)sc1-c1ccnc(N2CCN(C)CC2)n1
result_operator: =
observed_measurement: 6.25
--
mol_smiles: Cc1nc(-c2ccc(-c3ccccc3)cc2)sc1-c1ccnc(N2CCCC2)n1
result_operator: >
observed_measurement: 25
--
mol_smiles: Cc1nc(-c2ccc(-c3ccccc3)cc2)sc1-c1ccnc(N=C(N(C)C)N(C)C)n1
result_operator: >
observed_measurement: 25
--
mol_smiles: CCNc1nccc(-c2sc(-c3ccc(-c4ccccc4)cc3)nc2C)n1
result_operator: =
observed_measurement: 6.25
--
mol_smiles: Cc1nc(-c2ccc(-c3ccccc3)cc2)sc1-c1ccnc(N)n1
result_operator: =
observed_measurement: 6.25
--
mol_smiles: Cc1nc(-c2ccc(-c3ccccc3)cc2)sc1-c1ccnc(NC(=N)N2CCOCC2)n1
result_operator: =
observed_measurement: 0.78

###

# Test system: Staphylococcus aureus
# method: Antibacterial activity against methicillin-resistant Staphylococcus aureus 2658 RCMB up to 20 hrs by broth microdilution assay
# Type: functional
measured_quantity: MIC

mol_smiles: Cc1nc(-c2ccc(-c3ccccc3)cc2)sc1-c1ccnc(NC(=N)N2CCCC2)n1
observed_measurement: 12.5 µg/mL

mol_smiles: Cc1nc(-c2ccc(-c3ccccc3)cc2)sc1-c1ccnc(NC2CCCC2)n1
observed_measurement: > 25 µg/mL

mol_smiles: Cc1nc(-c2ccc(-c3ccccc3)cc2)sc1-c1ccnc(N2CC(O)C2)n1
observed_measurement: 3.12 µg/mL

mol_smiles: CCCCc1ccc(-c2nc(C)c(/C(C)=N/NC(=N)N)s2)cc1
observed_measurement: 4.7 to 4.8 µg/mL

mol_smiles: Cc1nc(-c2ccc(-c3ccccc3)cc2)sc1-c1ccnc(NC(=N)c2ccncc2)n1
observed_measurement: > 25 µg/mL

mol_smiles: Cc1nc(-c2ccc(-c3ccccc3)cc2)sc1-c1ccnc(NC(=N)N)n1
observed_measurement: 1.56 µg/mL

mol_smiles: Cc1nc(-c2ccc(-c3ccccc3)cc2)sc1-c1ccnc(NC(=N)N2CCN(C)CC2)n1
observed_measurement: 0.39 µg/mL

mol_smiles: Cc1nc(-c2ccc(-c3ccccc3)cc2)sc1-c1ccnc(NC(N)=S)n1
observed_measurement: > 25 µg/mL

mol_smiles: Cc1nc(-c2ccc(-c3ccccc3)cc2)sc1-c1ccnc(NC2CCCCC2)n1
observed_measurement: > 25 µg/mL

mol_smiles: CCCNc1nccc(-c2sc(-c3ccc(-c4ccccc4)cc3)nc2C)n1
observed_measurement: > 25 µg/mL

###

# method: Selectivity index, ratio of cytotoxic concentration for human HRT18 cells to MIC for methicillin-resistant Staphylococcus aureus
# Type: toxicity
# test_conditions: read-out: Selectivity Index
measured_quantity: selectivity ratio

mol_smiles: Cc1nc(-c2ccc(-c3ccccc3)cc2)sc1-c1ccnc(NN2CCN(C)CC2)n1
observed_measurement: 16
